test system: Klebsiella pneumoniae; assay: Antibacterial activity against Klebsiella pneumoniae ATCC 15490 after 24 hrs by twofold serial dilution method; format: functional; details: ATCC 15490, 24 h
measurement-name: MIC (µg/mL)
# value in µg/mL; strip the unit string

Guide cases for MIC, answers given:
>  <compound>
Clc1ccccc1[C@H]1N[C@@H](c2ccccc2Cl)C2CCCC1/C2=N/N=c1/[nH]c(-c2ccccc2)cs1

>  <unit-label>
µg/mL

>  <MIC>
100

$$$$
>  <compound>
Fc1ccc([C@H]2N[C@@H](c3ccc(F)cc3)C3CCCC2/C3=N/N=c2/[nH]c(-c3ccccc3)cs2)cc1

>  <unit-label>
µg/mL

>  <MIC>
12.5

$$$$
>  <compound>
COc1ccc([C@H]2N[C@@H](c3ccc(OC)cc3)C3CCCC2/C3=N/N=c2/[nH]c(-c3ccccc3)cs2)cc1

>  <unit-label>
µg/mL

>  <MIC>
200

$$$$
>  <compound>
c1ccc(-c2cs/c(=N\N=C3\C4CCCC3[C@H](c3ccccc3)N[C@@H]4c3ccccc3)[nH]2)cc1

>  <unit-label>
µg/mL

>  <MIC>
100

$$$$
>  <compound>
Clc1ccc([C@H]2N[C@@H](c3ccc(Cl)cc3)C3CCCC2/C3=N/N=c2/[nH]c(-c3ccccc3)cs2)cc1

>  <unit-label>
µg/mL

>  <MIC>
100

$$$$

**Q:** Requested read-out: MIC. Entry: `Fc1cccc([C@H]2N[C@@H](c3cccc(F)c3)C3CCCC2/C3=N/N=c2\scc(-c3ccccc3)n2-c2ccccc2)c1`
**A:** 100

**Q:** Follow-up item: `Fc1ccc([C@H]2N[C@@H](c3ccc(F)cc3)C3CCCC2/C3=N/N=c2\scc(-c3ccccc3)n2-c2ccccc2)cc1`
**A:** 100

**Q:** // repeat for CN[C@@H]1[C@H](O[C@H]2[C@H](O[C@H]3[C@H](O)[C@@H](O)[C@H](N=C(N)N)[C@@H](O)[C@@H]3N=C(N)N)O[C@@H](C)[C@]2(O)C=O)O[C@@H](CO)[C@H](O)[C@H]1O [STREPTOMYCIN] and report
**A:** 25

**Q:** // repeat for `Cc1ccc([C@H]2N[C@@H](c3ccc(C)cc3)C3CCCC2/C3=N/N=c2/[nH]c(-c3ccccc3)cs2)cc1` and report
**A:** 200

**Q:** Now try `Fc1cccc([C@H]2N[C@@H](c3cccc(F)c3)C3CCCC2/C3=N/N=c2/[nH]c(-c3ccccc3)cs2)c1` .
**A:** 25

* * *

Reported MIC values for a set of compounds
system: Aspergillus flavus; assay: Antifungal activity against Aspergillus flavus ATCC 485 after 72 to 96 hrs by twofold serial dilution method; assay type: functional

The cases that follow already have their MIC on record.
>  <molecule>
Clc1ccc([C@H]2N[C@@H](c3ccc(Cl)cc3)C3CCCC2/C3=N/N=c2/[nH]c(-c3ccccc3)cs2)cc1

>  <measurement-name>
MIC

>  <result>
25 µg/mL

$$$$
>  <molecule>
Clc1ccccc1[C@H]1N[C@@H](c2ccccc2Cl)C2CCCC1/C2=N/N=c1/[nH]c(-c2ccccc2)cs1

>  <measurement-name>
MIC

>  <result>
50 µg/mL

$$$$

For the next question, use this compound.
**Q:** Tell me the measured MIC of `COc1ccc([C@H]2N[C@@H](c3ccc(OC)cc3)C3CCCC2/C3=N/N=c2/[nH]c(-c3ccccc3)cs2)cc1` , please.
**A:** 12.5 µg/mL
